experiment: RP-TLC lipophilicity, silica gel C18, methanol-water; format: physicochemical; conditions: RP-TLC silica gel C18, mean value of RM
Quantity: mRM

input: mRM lookup needed for COc1c(N2CCNC(C)C2)c(F)cc2c(=O)c(C(=O)O)cn(C3CC3)c12 (stereo not drawn) [Compound 21, reference compound] , thanks.
output: 1.31

input: For COc1c(N2CC3CCC[N+]4(CN5C(=N4)C(C(=O)O)=Cc4ccccc45)C3C2)c(F)cc2c(=O)c(C(=O)O)cn(C3CC3)c12.[Cl-] (stereo not drawn) , what is its reported mRM?
output: 1.24

input: Please look up its mRM: CC1=CC(C)=C(C(=O)O)C2=N[N+]3(CN12)C(C)CN(c1c(F)c(N)c2c(=O)c(C(=O)O)cn(C4CC4)c2c1F)CC3C.[Cl-] (stereo not drawn)
output: 0.88

input: Quick one: mRM for CCn1cc(C(=O)O)c(=O)c2cc(F)c(N3CCNCC3)cc21 [Compound 18, reference compound] ?
output: 1.40

input: Item C[C@@H]1CN(c2c(F)c(N)c3c(=O)c(C(=O)O)cn(C4CC4)c3c2F)C[C@H](C)N1 [Compound 20, reference compound] has what recorded mRM?
output: 1.28

input: I have this molecule here, `CCn1cc(C(=O)O)c(=O)c2cnc(N3CC[N+]4(CC3)CN3C(C)=CC(C)=C(C(=O)O)C3=N4)nc21.[Cl-]` , and I need its recorded mRM.
output: 0.70

input: Name the reported mRM value associated with the molecule `CC1=CC(C)=C(C(=O)O)C2=N[N+]3(CCN(c4cc5c(cc4F)c(=O)c(C(=O)O)cn5C4CC4)CC3)CN12.[Cl-]`
output: 0.72

input: // returns reported mRM for input CCn1cc(C(=O)O)c(=O)c2cc(F)c(N3CC[N+]4(CN5C(=N4)C(C(=O)O)=Cc4ccccc45)C(C)C3)c(F)c21.[Cl-] (stereo not drawn)
output: 0.94

input: Consider the molecule `CCn1cc(C(=O)O)c(=O)c2cnc(N3CC[N+]4(CC3)CN3C(=N4)C(C(=O)O)=Cc4ccccc43)nc21.[Cl-]` and give its measured mRM.
output: 0.98
